Recorded measurements of melting point, one per entry

CC(=O)NOCc1nc2c(N)nc3c(c2n1CC(C)C)CCCC3
187 to 188 °C
CS(=O)(=O)Oc1cc(=O)c(OCc2ccccc2)cn1Cc1ccccc1
115 to 117 °C
CCCCc1nc(Cl)c(CC(=O)OC)n1Cc1ccc(NS(=O)(=O)C(F)(F)F)cc1
154 to 157 °C
COC1CCC2C3CCC4CC(=NO)C(C)CC4(C)C3CCC12C (configuration not stated)
203 to 211 °C
CCCn1c(=O)c2[nH]c(-c3ccsc3)nc2n(CCC)c1=O
> 250 °C
CCOC(=O)c1cn(C)c2nc(Cl)ncc2c1=O
205 °C

Inquiry: Which melting point reading was recorded for the compound NC(=O)CCCCC(=O)c1ccccc1 ?
Reply text: 113 to 114 °C

Inquiry: Which melting point reading was recorded for the compound CC(=NOCCOc1ccc(C(=O)O)c(O)c1)c1ccccc1 ?
Reply text: 149 to 150 °C

Inquiry: Which melting point reading was recorded for the compound COc1cc(N2CCCCC2)ccc1C(=O)c1ccccc1C(=O)O ?
Reply text: 199 to 201 °C

Inquiry: Which melting point reading was recorded for the compound COC(=O)c1ccc(Cl)cc1C1(c2ccccc2F)OCC(CCl)O1 (configuration not stated) ?
Reply text: 117 to 122 °C

Inquiry: Which melting point reading was recorded for the compound CC(Cl)(Cl)C(NC(=O)c1ccc(Cl)cc1)NC(=N[N+](=O)[O-])Nc1cccnc1 (configuration not stated) ?
Reply text: 170 to 172 °C

Inquiry: Which melting point reading was recorded for the compound CC1SC(c2cccnc2)N(CC(=O)OC(C)(C)C)C1=O (configuration not stated) ?
Reply text: 108 °C

Inquiry: Which melting point reading was recorded for the compound C#CCOc1ccc(C(=O)C=Cc2ccccc2)c(O)c1 ?
Reply text: 115 to 117 °C

Inquiry: Which melting point reading was recorded for the compound CCOC(=O)COc1cc(OCC=C(C)C)ccc1C(=O)C=Cc1ccc(C(C)(C)C)cc1 ?
Reply text: 78 to 79 °C

Inquiry: Which melting point reading was recorded for the compound COc1ccc(N(C(=O)CN2C(=O)CC(=O)N(c3ccncc3)c3ccccc32)C(C)C)cc1 ?
Reply text: 211 to 213 °C

Inquiry: Which melting point reading was recorded for the compound c1cc(-c2ccncc2)c2sccc2c1 ?
Reply text: 71 to 72 °C

Inquiry: Which melting point reading was recorded for the compound CC(=O)NC(C#N)NC(=O)c1cc(C)cc(C)c1 (configuration not stated) ?
Reply text: 195 to 197 °C

Inquiry: Which melting point reading was recorded for the compound CC(=O)c1cc(C)c(NC(=O)c2cc(C(F)(F)F)nn2-c2ncccc2Cl)c(C(=O)NC(C)C)c1 ?
Reply text: 135 to 137 °C

Inquiry: Which melting point reading was recorded for the compound COCCN1CCc2ccc(Nc3ncc(Cl)c(Nc4ccccc4S(=O)(=O)N4CCC(O)C4)n3)cc2CC1 (configuration not stated) ?
Reply text: 120 to 128 °C

Inquiry: Which melting point reading was recorded for the compound C#CCN(C(=O)OC(C)(C)C)c1cn(-c2cncc(F)c2)nc1C ?
Reply text: 81 to 82 °C

Inquiry: Which melting point reading was recorded for the compound Clc1ccc([Si](Cl)(Cl)Cl)cc1 ?
Reply text: 60 to 61 °C

Inquiry: Which melting point reading was recorded for the compound N#CC(=Cc1ccsc1)C(=O)O ?
Reply text: 211 °C

Value source: a melting point compilation (Tetko et al.; mined from patent text by program, amines drawn as free bases though some values may be those of a salt)
